procedure_details: ATG_EGR_CIS: Attagene CIS-FACTORIAL HepG2 Assay for human Early Growth Response 1 (EGR1) (AID 2282938)
condition_info: HepG2 Attagene CIS-FACTORIAL EGR reporter mRNA; actives raise or lower the signal
The source made the active and inactive calls. How the source made its calls: active means hit-call score of the fitted dose curve at least 0.9, where 1 is the maximum; inactive means score below 0.9.
Outcome codes: YES for active, NO for inactive

| molecule | class_name |
| --- | --- |
| CCC(C)(C)c1cc(O)c(C(C)(C)CC)cc1O | YES |
| O=C(O)c1ccco1 | NO |
| C=CCOCC(O)CO (centres undefined) | NO |
| CC(O)CN (centres undefined) | NO |
| C=CC(O)CCCCC (centres undefined) | YES |
| O=C1CCC(=O)N1 | NO |
| CC(=O)OCC=C(C)CCC=C(C)CCC=C(C)C | NO |
| Cc1cccc(O)c1 | NO |
| COc1ccc2[nH]cc(CCNC(C)=O)c2c1 | NO |
| OCCN1CCOCC1 | NO |
| COc1ccccc1O | NO |
| C=COCC1CCC(COC=C)CC1 (centres undefined) | NO |
| CC(=O)OC/C=C(C)/C=C/C=C(C)/C=C/C1=C(C)CCCC1(C)C | YES |
| CCCO | NO |
| NNC(=O)OCc1ccccc1 | NO |
| CCCCCC1CCC(=O)O1 (centres undefined) | NO |
| CCCOC(=O)CC | NO |
| CCO[Si](CCC#N)(OCC)OCC | NO |
| CCCCCCCCCCCCS | NO |

---

Read-out: Urokinase-type plasminogen activator receptor (uPAR), PLAUR (gene 5329)
procedure_details: BSK_4H_uPAR: BioMAP Diversity Plus: 4H Assay for Urokinase-type plasminogen activator receptor (uPAR) Biomarker Activity (AID 2283030)
condition_info: primary human endothelial cells (HUVEC); actives raise or lower the signal
Calls of active or inactive are those of the source. The calls were made as follows: active = hit-call score of the fitted dose curve at least 0.9, where 1 is the maximum; inactive = score below 0.9.
Outcome codes: true = active, false = inactive

| compound | class_name |
| --- | --- |
| CCn1cc(C(=O)O)c(=O)c2ccc(C)nc21 | false |
| CCCCCCCC1CCCC1=O (stereo not given) | true |
| OCC(F)(OC(F)(F)C(F)(OC(F)(F)C(F)(F)C(F)(F)F)C(F)(F)F)C(F)(F)F (stereo not given) | false |
| CC1(C)[C@H](C=C(Cl)Cl)[C@H]1C(=O)OCc1cccc(Oc2ccccc2)c1 | false |
| CCCO[Si](OCCC)(OCCC)OCCC | false |
| C[C@]12CC[C@@H]3c4ccc(O)cc4CC[C@H]3[C@@H]1CC[C@@H]2O | true |
| C=C(C)C(N)=O | false |
| O=C(O)C(F)(F)C(F)(F)C(F)(F)C(F)(F)C(F)(F)C(F)(F)C(F)(F)C(F)F | false |
| CCCCCCCCCCCCS | false |
| CCCCOCCOCCO | false |

---

test_target: human Phosphodiesterase 10 (PDE10), PDE10A (gene 10846)
procedure_details: NVS_ENZ_hPDE10: NovaScreen (NVS) Enzymatic Assay for human Phosphodiesterase 10 (PDE10) (AID 2283195)
Inconclusive results are not listed. Activity calls are given as the source filed them. Rule for the calls: active = hit-call score of the fitted dose curve at least 0.9, where 1 is the maximum; inconclusive = response in the unintended direction; inactive = score below 0.9.
Labels: Yes = active, No = inactive

| compound | class_name |
| --- | --- |
| CCCCCCOC(C)=O | No |
| CCC(CC)CO | No |
| S=c1[nH][nH]c(=S)s1 | No |
| OCCCO | Yes |
